Target: Retinoic acid receptor RXR-alpha (Homo sapiens)
Sequence (whole entry): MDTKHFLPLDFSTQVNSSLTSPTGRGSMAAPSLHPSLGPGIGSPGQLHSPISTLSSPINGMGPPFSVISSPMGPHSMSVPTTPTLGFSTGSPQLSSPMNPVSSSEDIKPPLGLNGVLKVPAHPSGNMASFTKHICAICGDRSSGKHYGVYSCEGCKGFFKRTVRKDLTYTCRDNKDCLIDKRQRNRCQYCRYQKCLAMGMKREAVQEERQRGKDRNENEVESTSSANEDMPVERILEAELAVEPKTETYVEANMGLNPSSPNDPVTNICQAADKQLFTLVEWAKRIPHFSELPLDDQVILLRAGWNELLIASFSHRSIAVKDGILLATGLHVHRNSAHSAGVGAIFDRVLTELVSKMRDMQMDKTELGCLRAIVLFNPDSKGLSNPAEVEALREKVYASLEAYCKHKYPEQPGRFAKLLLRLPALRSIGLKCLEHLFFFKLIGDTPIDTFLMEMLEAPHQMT
Experiment: Agonistic efficacy in CV-1 cells (LGD1069 was used as reference)
Format: functional, cell-based
Settings: Cercopithecidae
Quick rule for you: Efficacy at 8% or higher means MET, lower means NOT MET.

Quick check, Efficacy >= 8%? CCOc1c(\C(C)=C/C=C/C(C)=C/C(=O)O)cc(C(C)C)cc1C(C)C
MET

Query CCOc1c(-c2csc3cnc(/C(C)=C/C(=O)O)cc23)cc(C(C)C)cc1C(C)C next
MET

Query CCCCOc1c(-c2cccc3[nH]c(/C(C)=C/C(=O)O)cc23)cc(C(C)C)cc1C(C)C next
NOT MET

Query CCCCOc1c(-c2c[nH]c3ccc(/C(C)=C/C(=O)O)cc23)cc(C(C)(C)C)cc1C(C)(C)C next
NOT MET

Query CCCCOc1c(-c2cn(C)c3ccc(/C(C)=C/C(=O)O)cc23)cc(C(C)C)cc1C(C)C next
NOT MET

Query CCCCOc1c(-c2c[nH]c3ccc(/C(C)=C/C(=O)O)cc23)cc(C(C)C)cc1C(C)C next
NOT MET

Query CCOc1c(-c2noc3ccc(/C(C)=C/C(=O)O)cc23)cc(C(C)C)cc1C(C)C next
MET

Query COc1c(-c2csc3ccc(/C(C)=C/C(=O)O)cc23)cc(C(C)C)cc1C(C)C next
MET
